Biological target: SARS-CoV-1 spike protein (SARS-CoV-1, UniProt P59594 14-1195)
Assay: ELISA
Below, each of the binders is paired with its reported IC50 value.
# value in nM; strip the unit string

Some binders with known IC50 results, for comparison:
8-A17-A (antibody, V domains shown) VH: QVQLKESGPGLVAPSQSLSITCTVSGFSLTSYAISWVRQPPGKGLEWLGVVWPGGGTNYNSALKSRLSINKDNSKSQVFLKMNSLQTDDTGRYYCARTGYHFDYWGQGTTLTVSS VL: QIVLTQSPAIMSASPGEKVTMTCSVSSSVSYMHWYQQKSGTSPKRWIYDTSKLASGVPARFSGSGSGTSYSLTISSMEAEDAATYYCQQWSSNPPMYTFGGGTKLEIK = 5.1
2-P2-A (antibody, V domains shown) VH: EVQLQQSGAELVRPGSSVKMSCKTSGYTFTSYGINWVKQRPGQGLEWIGYIYIGNGYTEYNEKFKGKATLTSDTSSSTAYMQLSSLTSEDSAIYFCARGGVDYWGQGTTLTVSS VL: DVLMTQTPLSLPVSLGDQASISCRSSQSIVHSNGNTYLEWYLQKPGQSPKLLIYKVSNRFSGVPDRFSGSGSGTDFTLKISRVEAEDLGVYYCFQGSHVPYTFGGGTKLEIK = 17.9
9-F6-A (antibody, V domains shown) VH: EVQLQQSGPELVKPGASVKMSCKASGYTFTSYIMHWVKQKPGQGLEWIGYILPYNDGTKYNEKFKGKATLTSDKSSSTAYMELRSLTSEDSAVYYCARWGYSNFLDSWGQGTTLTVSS VL: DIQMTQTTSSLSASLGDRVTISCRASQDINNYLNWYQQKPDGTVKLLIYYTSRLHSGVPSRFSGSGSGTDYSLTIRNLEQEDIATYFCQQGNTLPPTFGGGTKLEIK = 5.55

Here is another binder to look at.
Just so you know, measured IC50 for 1-B11-A (antibody, V domains shown) VH: QVQLQQSGPELVKPGASVKISCKASGYTFTDHYINWVKQRPGQGLEWIGWIFPGSGSTYYNEQFKGKATLTVDKSSNTAYMLLSSLTSEDSAVYFCARSGGLRLGFAYWGQGTLVTVSA VL: DIQMTQTTSSLSASLGDRVTISCRASQDISNYLNWYQQKPDGTVKLLIYYTSRLHSGVPSRFSGSGSGTDYSLTISNLEQEDISTYFCQQVNTLPYTFGGGTKLEIK came out at 20.9
